Assay: Solubility of CY1-4 (excess sample shaken in a 37 °C water bath for 48 h, HPLC)
Type: physicochemical
Settings: deionized water, water, thermodynamic from solid
Description: The excess MSNM@CY1-4 was placed in deionized water and was shaken in a 37 °C water bath for 48 h. The supernatant was filtered after centrifugation at 10,000 rpm, and the filtrate was collected. The CY1-4 was measured using HPLC to calculate the solubility of CY1-4.
measured metric: solubility at 48 h

[Q] Which solubility at 48 h is reported for this molecule? `O=C1c2cc([N+](=O)[O-])ccc2-n2c1nc1ncccc1c2=O`
[A] < 100 µg/mL

----------
Experiment: Solubility of CY1-4 (excess sample shaken in a 37 °C water bath for 48 h, HPLC)
Type: physicochemical
Details: pH 1.2 medium, pH 1.2, simulated gastric fluid, thermodynamic from solid, pH = 1.2
measured metric: solubility at 48 h

[Q] So what's the measured solubility at 48 h for this one? O=C1c2cc([N+](=O)[O-])ccc2-n2c1nc1ncccc1c2=O [CY1-4]
[A] 1.36 µg/mL

----------
Test: Solubility of CY1-4 (excess sample shaken in a 37 °C water bath for 48 h, HPLC)
Type: physicochemical
Conditions: deionized water, water, thermodynamic from solid, 48 h
measured metric: solubility at 48 h (µg/mL)
One number for each entry, in µg/mL.

[Q] Entry O=C1c2cc([N+](=O)[O-])ccc2-n2c1nc1ncccc1c2=O [CY1-4] has what solubility at 48 h?
[A] 1.16

Data credit: paper PMC11676189
